test system: PPARa:RXRa (NR concentration 270 nM, RXRa partner concentration 90 nM); test: PBM binding z-score (relative to random genomic background probes); higher = stronger binding; sequences stand for … in GC…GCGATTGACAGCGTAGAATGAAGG
Class key for PBM binding z-score values: group 1 = under 1, group 2 = from 1 up to 4, group 3 = 4 and over

Some solved cases for reference:
CGTCAAAGTTAAACTAAGGTAACGTAAAGCACGC = group 1
TCATATAGGTAAATGCTAGGTGATAGTCCGATCT = group 2
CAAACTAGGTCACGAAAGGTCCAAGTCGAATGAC = group 3
CCGGCTGGGGCAAAGGTTACCATACTCAGTACGA = group 3

Prompt: Any idea which band `ATCGAAAGGTCGAATGTGAGTATACCCACCCGAA` is in?
Response: group 3

Prompt: Form: Item = `GCTAGCAGGCCATGTGGGTCACTCAATGACGGGC` ; Class = ?
Response: group 2

Prompt: Each sequence maps to one class by PBM binding z-score. Which class for `AATACAGGGTCATCGTAGGCCAGAGTACGCACAG` ?
Response: group 3

Prompt: Looking at `GCGACTGGGGCATCAGGAGGTTACCATAACTTAA` , which class would you pick?
Response: group 2

Prompt: State the class of the sequence shown: `AGAACGAGGGCACGCTGAGTGGATAGCAGAGTAG`
Response: group 2

Prompt: State the class of the sequence shown: `TAGCCTAGGTCATGGGCCAGTATTCCACGCGAAC`
Response: group 3

Prompt: Sort `CCGACTGGGGCATAGGTTACCATACTCAGTACGA` into one of the categories.
Response: group 2

Prompt: Which class is correct for the following sequence? `TCATATAGTTAAATGCTAGGTGAAAGTCCGATCT`
Response: group 1

Prompt: # classify by PBM binding z-score band: `ATCTCTAGGTTACAAGTTCAGTGAAAGAGAGGAC`
Response: group 2

Prompt: In plain terms, what class is `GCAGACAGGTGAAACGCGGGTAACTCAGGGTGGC` ?
Response: group 1

Prompt: Band for `TAGCCTAGGTCATTGGGCCAGTACAGTACGCATC` ?
Response: group 2

Prompt: In plain terms, what class is `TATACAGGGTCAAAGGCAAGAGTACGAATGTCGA` ?
Response: group 3
